# Assay System: Prostaglandin G/H synthase 1 (Ovis aries) (UniProt P05979)
# Sequence (P05979 whole entry): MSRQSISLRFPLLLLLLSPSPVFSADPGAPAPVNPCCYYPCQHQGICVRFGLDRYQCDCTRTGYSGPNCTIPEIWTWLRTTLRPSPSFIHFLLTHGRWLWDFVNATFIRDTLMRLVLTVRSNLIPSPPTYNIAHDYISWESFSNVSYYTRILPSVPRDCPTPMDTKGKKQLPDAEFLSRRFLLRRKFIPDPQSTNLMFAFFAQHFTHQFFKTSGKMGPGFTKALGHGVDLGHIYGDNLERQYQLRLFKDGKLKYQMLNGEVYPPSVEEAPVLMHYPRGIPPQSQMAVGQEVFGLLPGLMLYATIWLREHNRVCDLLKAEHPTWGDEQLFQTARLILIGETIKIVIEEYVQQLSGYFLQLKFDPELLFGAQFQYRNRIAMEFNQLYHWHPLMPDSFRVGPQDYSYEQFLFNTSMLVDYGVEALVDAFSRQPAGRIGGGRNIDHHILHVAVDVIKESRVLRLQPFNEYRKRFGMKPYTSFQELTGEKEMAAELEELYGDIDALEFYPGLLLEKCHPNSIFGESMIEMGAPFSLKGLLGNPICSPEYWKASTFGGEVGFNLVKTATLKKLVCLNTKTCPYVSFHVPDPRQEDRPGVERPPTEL
# Method Summary: Inhibition of sheep COX1 at 10 uM by enzyme immunoassay
Measured Property: inhibition (%)
Number in %, nothing else.

Some solved cases for reference:
Structure As Smiles	Assay System	Quantity Unit	inhibition
Cn1c(=O)oc2cc(-c3cc(C(F)(F)F)nn3-c3ccc(F)cc3)ccc21	Prostaglandin G/H synthase 1 (Ovis aries) (UniProt P05979)	%	55.5
COc1ccc(C2=C(c3ccc4c(c3)oc(=O)n4C)COC2=O)cc1	Prostaglandin G/H synthase 1 (Ovis aries) (UniProt P05979)	%	59.8
COc1ccc(-n2nc(C(F)(F)F)cc2-c2ccc3c(c2)oc(=O)n3C)cc1	Prostaglandin G/H synthase 1 (Ovis aries) (UniProt P05979)	%	95.6

Let's switch to this compound now.
Query: I have this compound here, `Cn1c(=O)oc2cc(-c3cc(C(F)(F)F)nn3-c3ccc(Cl)cc3)ccc21` , and I need its recorded inhibition.
Response: 91.2
